TESTED_TARGET: androgen receptor (Homo sapiens, UniProt P10275)
Construct: endogenous in cells; host or cells: VCaP
Sequence (P10275 whole entry): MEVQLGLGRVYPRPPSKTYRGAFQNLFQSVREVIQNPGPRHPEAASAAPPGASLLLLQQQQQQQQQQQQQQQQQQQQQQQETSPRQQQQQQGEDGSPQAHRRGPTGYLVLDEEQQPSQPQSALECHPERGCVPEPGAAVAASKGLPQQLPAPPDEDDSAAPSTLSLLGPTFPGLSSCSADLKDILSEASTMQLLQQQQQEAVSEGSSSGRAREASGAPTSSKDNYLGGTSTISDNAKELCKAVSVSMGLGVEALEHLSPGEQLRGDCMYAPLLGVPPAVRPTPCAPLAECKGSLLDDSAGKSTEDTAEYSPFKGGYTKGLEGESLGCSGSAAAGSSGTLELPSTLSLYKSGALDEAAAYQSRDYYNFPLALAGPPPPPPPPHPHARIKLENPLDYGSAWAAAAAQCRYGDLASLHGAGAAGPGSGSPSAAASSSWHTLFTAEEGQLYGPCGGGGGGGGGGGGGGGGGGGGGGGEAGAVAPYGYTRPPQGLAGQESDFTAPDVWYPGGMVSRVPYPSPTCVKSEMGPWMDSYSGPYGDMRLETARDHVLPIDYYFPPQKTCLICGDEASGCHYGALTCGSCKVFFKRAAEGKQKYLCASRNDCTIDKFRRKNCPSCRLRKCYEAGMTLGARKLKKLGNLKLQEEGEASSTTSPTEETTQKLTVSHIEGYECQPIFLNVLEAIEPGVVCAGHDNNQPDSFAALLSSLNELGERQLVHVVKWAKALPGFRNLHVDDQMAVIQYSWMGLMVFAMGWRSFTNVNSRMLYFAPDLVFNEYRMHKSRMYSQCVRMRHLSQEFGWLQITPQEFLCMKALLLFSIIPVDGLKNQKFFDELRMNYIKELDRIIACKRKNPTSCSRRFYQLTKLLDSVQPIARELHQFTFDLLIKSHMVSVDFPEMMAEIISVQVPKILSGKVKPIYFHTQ
EXPERIMENT_SUMMARY: AR ELISA assay (PathScan AR Sandwich ELISA), VCaP cells
Assay type: cell-based
CONDITION_NOTES: drug treatment 5 hours
READOUT: Dmax

Sample records with Dmax:
Report Dmax for CC1(C)[C@H](NC(=O)c2ccc(N3CCC(CN4CCN(c5ccc(C(=O)NC6CCC(=O)NC6=O)cc5)CC4)CC3)nn2)C(C)(C)[C@H]1Oc1ccc(C#N)c(Cl)c1 (some centres unmarked) please.
≥ 70%

Request: Cc1cc(O[C@H]2C(C)(C)[C@H](NC(=O)c3ccc(N4CCC(CN5CCN(c6ccc(C(=O)NC7CCC(=O)NC7=O)cc6)CC5)CC4)nn3)C2(C)C)cc(C)c1C#N (some centres unmarked)
≥ 70%

Moving on to the next molecule: Cc1cc(O[C@H]2C(C)(C)[C@H](NC(=O)c3cnc(N4CCC(CN(C(C)C)[C@H]5C[C@H](Oc6ccc(C(=O)NC7CCC(=O)NC7=O)cc6)C5)CC4)cn3)C2(C)C)cc(C)c1C#N (some centres unmarked)
50 to 70%

Further cases:
Value lookup for Dmax; key = CC1(C)[C@H](NC(=O)c2ccc(N3CCC(CN4CCN(c5ccc(F)c(C(=O)NC6CCC(=O)NC6=O)c5)CC4)CC3)cc2)C(C)(C)[C@H]1Oc1ccc(C#N)c(Cl)c1 (some centres unmarked)
< 50%

Same again, this time with Cc1cc(O[C@H]2C(C)(C)[C@H](NC(=O)c3cnc(N4CCC(CN(C(C)C)[C@H]5C[C@H](Oc6cccc(C(=O)NC7CCC(=O)NC7=O)c6)C5)CC4)cn3)C2(C)C)cc(C)c1C#N (some centres unmarked)
< 50%

What about Cc1cc(O[C@H]2C(C)(C)[C@H](NC(=O)c3ccc(N4CCC(CN5CCN(c6ccnc(C(=O)NC7CCC(=O)NC7=O)c6)CC5)CC4)cc3)C2(C)C)cc(C)c1C#N (some centres unmarked) ?
50 to 70%

What would you report for Cc1cc(O[C@H]2C(C)(C)[C@H](NC(=O)c3ccc(N4CCC(CN5CCN(c6cncc(C(=O)NC7CCC(=O)NC7=O)c6)CC5)CC4)cc3)C2(C)C)cc(C)c1C#N (some centres unmarked) ?
< 50%

Lookup CC(C)N(CC1CCN(c2cnc(C(=O)N[C@H]3C(C)(C)[C@H](Oc4ccc(C#N)c(Cl)c4)C3(C)C)cn2)CC1)[C@H]1C[C@H](Oc2cccc(C(=O)NC3CCC(=O)NC3=O)c2)C1 (some centres unmarked)
< 50%

Now the molecule CC1(C)[C@H](NC(=O)c2ccc(N3CCC(CN4CCN(c5ccc(C(=O)NC6CCC(=O)NC6=O)cc5)CC4)CC3)cc2)C(C)(C)[C@H]1Oc1ccc(C#N)c(Cl)c1 (some centres unmarked)
≥ 70%

Then what about the molecule CC1(C)[C@H](NC(=O)c2ccc(N3CCC(CN4CCN(c5cccc(C(=O)NC6CCC(=O)NC6=O)c5)CC4)CC3)cc2)C(C)(C)[C@H]1Oc1ccc(C#N)c(Cl)c1 (some centres unmarked) ?
< 50%

What about this molecule? Cc1cc(O[C@H]2C(C)(C)[C@H](NC(=O)c3ccc(N4CCC(CN5CCN(c6ccc(F)c(C(=O)NC7CCC(=O)NC7=O)c6)CC5)CC4)cc3)C2(C)C)cc(C)c1C#N (some centres unmarked)
50 to 70%

Thanks! And Cc1cc(O[C@H]2C(C)(C)[C@H](NC(=O)c3cnc(N4CCC(CN(C(C)C)[C@H]5C[C@H](Oc6cccc(C(=O)NC7CCC(=O)NC7=O)c6)C5)CC4)nc3)C2(C)C)cc(C)c1C#N (some centres unmarked) ?
50 to 70%

Now try Cc1cc(O[C@H]2C(C)(C)[C@H](NC(=O)c3cnc(N4CCC(CN(C(C)C)[C@H]5C[C@H](Oc6ccc(C(=O)NC7CCC(=O)NC7=O)cc6)C5)CC4)nc3)C2(C)C)cc(C)c1C#N (some centres unmarked) .
≥ 70%

# iterate: CC(C)N(CC1CCN(c2cnc(C(=O)N[C@H]3C(C)(C)[C@H](Oc4ccc(C#N)c(Cl)c4)C3(C)C)cn2)CC1)[C@H]1C[C@H](Oc2ccc(C(=O)NC3CCC(=O)NC3=O)cc2)C1 (some centres unmarked)
< 50%
